Reported cytotoxicity at 70.5 h is given for each of the following molecules.
# protocol.details: Human HepG2 cell viability assay in 384 well format
# Type: toxicity, cell-based
# Design: dose 125 nL, time 70.5 hour; concentration not given beside the values
# test.conditions: HepG2 cells, read-out: Inhibition

Known results for molecules:
O=C(c1ccc(F)cc1)N1C[C@@H]2CN(c3ncccn3)C[C@@H]2C1: -6.82%
Cc1cc(CN(C)Cc2ncc(-c3cccs3)o2)no1: 0.203%
CN1CCN(c2ccc(CO)cc2F)CC1: -8.87%

Quick one: give measured cytotoxicity at 70.5 h for COc1cc(C(C)NCc2cscn2)ccc1SC(F)F (configuration not stated) 30.9%

Check the records and state cytotoxicity at 70.5 h for CN(CCC(=O)N1CCc2sccc2C1)Cc1cnn(C)c1 -2.72%

Return the recorded cytotoxicity at 70.5 h value; entry: c1cnc(N2CCCC(NCc3ccc(-n4ccnc4)cc3)C2)nc1 (configuration not stated) -4.91%

Annotate the molecule CN(C)CCN1CC(C(=O)N(C)Cc2cc3cc(F)ccc3[nH]2)CC1=O (configuration not stated) with its measured cytotoxicity at 70.5 h. -7.58%

State its cytotoxicity at 70.5 h: CCN(CCO)C(=O)Nc1ccc(OCCOC)nc1 2.78%

Respond only with cytotoxicity at 70.5 h recorded for Fc1ccc(N2CCOC(Cc3cccnc3)C2)cc1 (configuration not stated) -9.3%
